Test system: MS2 coat protein
assay.details: apparent Kd, MS2 coat protein; higher = weaker binding; RNA-MaP array
reported.conditions: ligand present: flavin mononucleotide; designed as: OFF switch for flavin mononucleotide
reported.property: apparent Kd (nM)

CGUACAAUUAAGAAGGGACAUUGCUAUAGACUGUCAGGAUAUUAUGUACAUGAGGAUCACCCAUGUAGUAGUCAAGGGUCGGAA	61.7
AUCAGUGGCUAGGAUAUGUUAGUCAGAUAUACAACAGAAGGAGCGACAUGAGGAUCACCCAUGUUACAGUGGAG	22.2
UACCGGGCGAUAGGAUAUAUCAGUUACUUCACAUGAGGAUCACCCAUGUUACCCGUGGAAAGUUGAUAGAAGGAUCCAGCUCCA	41.2
AACAUGUGAGGAUAUAGUCAAAAUAGCACAAGUAACAUAAACUAGAAGGCACAUGAGGAUCACCCAUGUGAAUA	10.6
AUUGUGAUAGCAGGAUAUUGUAUUGGUACAUGAGGAUCACCCAUGUUAAAAUCCUCUUGAUUUAGCAAGAAGGGCUCCAUGGCA	18.3
UGGGAGUGAGGAUAUGUAUAUCUCAGGGCCGAGGAGAUGAAACAGAAGGCACAUGAGGAUCACCCAUGUUAUGA	29.9
CUACCUACAGGAUAUACAUGAGGAUCACCCAUGUUUCAACGUGGAACAGGUUGAACAUGUAGAAGGGAAUCGUU	17.2

* * *

Test system: MS2 coat protein
assay.details: apparent Kd, MS2 coat protein; higher = weaker binding; RNA-MaP array; FMN 200 µM where present
reported.conditions: ligand present: flavin mononucleotide; designed as: OFF switch for flavin mononucleotide
Quick reference: apparent Kd of the listed items.
reported.property: apparent Kd (nM)

GUACGUGGACAGAAGGUGACAUGAGGAUCACCCAUGUUAGUUGAGGUAUCAGCGAUCUGCGUGAUUGAGGAUAUGUCUGCGGGC	11.7
AAAUUAAGUGUGAGGAUAUGCUGGUCCUUAGAUCAGCAGAAGGCACAUGAGGAUCACCCAUGUAAUAUAUUUAA	193
CUGUAUCGGUCAGGAUAUGUGCGUAAACUGUGAACAGAAGGGACCGUACAUGAGGAUCACCCAUGUCCGGGACUCCUUAUGCCU	22.2

* * *

Tested on: MS2 coat protein
assay.details: apparent Kd, MS2 coat protein; higher = weaker binding; RNA-MaP array
reported.conditions: designed as: OFF switch for flavin mononucleotide; no ligand
# apparent Kd >= 10 nM gives yes (1), anything below gives no (0)

AACUCCACCGCAGGAUAUCCGGUCUCUCUGUAGACGACAUGAGGAUCACCCAUGUAUCCGGGAAUGGAGAAGGGCGGUGCUCCU	yes (1)
GCUUUAUUCUAGAAGGCUUAUCAUGCAUAAUGUCUAGAAGUUCAGACAUGAGGAUCACCCAUGUAAGAGGAUAUAGCGUAAAGU	yes (1)
CCAGUUACCAGAGGAUAUGAUUCCAGAGUUAAGGGUAUUCACAUGAGGAUCACCCAUGUGCUCCUUCAGAAGGCUGAUAACCCG	yes (1)
CUUAUCAUAGGAUAUACAUGAGGAUCACCCAUGUAGUAGCAUAUAUAUAGUUUCCCAAGUAGAAGGAUGUACAC	no (0)
UGUGCCUAGUAGAAGGCGCCGACUCGCUCACGGCGAGGAUAUACUACUCAGGGCACAUGAGGAUCACCCAUGUGUGAUUCGUAA	yes (1)
ACAGGACUAGUAGGAUAUGCGCCGGUAGUACCCGCAGAAGGACUUUCACGGGUUAUUGUCACAUGAGGAUCACCCAUGUGAGGG	yes (1)
ACCUAAUAAGGAUAUACGAAAGAGCCACCUGUAAACAACCGACAUGAGGAUCACCCAUGUAGAAGGUAUUAGGU	no (0)
AGUACGUCAGGAUAUCGCGUACGAAACAUGAGGAUCACCCAUGUGGUGCCGUGGCUCUAUCGAGAAGGGACUUGGC	yes (1)
AUGUGUAUUGAAGGAUAUGAAGCCGGCAUAAAAUCAGAAGGUCAACUAAUUACACAUGAGGAUCACCCAUGUGAUGACAUGCUU	yes (1)
GUACUGUACAAGAAGGUUGAUUUGCAUCAAGAUCCGAUUUACAUGAGGAUCACCCAUGUUUUAUCAAAGGAUAUUGGUACAACG	yes (1)

Where do these numbers come from? They come from the EternaBench riboswitch data.
